Values compiled from ChEMBL document CHEMBL1148370.

- tested on: Adrenergic receptor alpha-1 (Rattus norvegicus, UniProt P15823+P23944+P43140)
Rule for this label: fulfilled means Ki is less than 9 nM; not fulfilled means Ki is at least 9 nM.

> print(dat)
                               line.notation     class.name
 1  Fc1ccc2[nH]cc(CCCNCCOc3cccc4ncccc34)c2c1  not fulfilled
 2  Fc1cc2c(c(OCCNCCCc3c[nH]c4ccc(F)cc34)c1)OCCC2  not fulfilled
 3   COc1ccc(F)cc1OCCNCCCc1c[nH]c2ccc(F)cc12      fulfilled
 4  Fc1cc2c(c(OCCNCCc3c[nH]c4ccc(F)cc34)c1)OCCC2  not fulfilled
 5  Fc1ccc2[nH]cc(CCCNCCOc3cccc4[nH]ccc34)c2c1      fulfilled
 6   Fc1ccc2[nH]cc(CCNCCOc3cccc4c3OCCO4)c2c1  not fulfilled
 7  Fc1ccc2[nH]cc(CCCNCCOc3cc(Cl)cc4[nH]cnc34)c2c1      fulfilled
 8    COc1ccc(F)cc1OCCNCCc1c[nH]c2ccc(F)cc12      fulfilled
 9  c1ccc2c(CCCNCCOc3cccc4[nH]ccc34)c[nH]c2c1  not fulfilled
10   c1ccc2c(OCCNCCCc3c[nH]c4ccccc34)cccc2c1  not fulfilled

* * *

- tested on: Adrenergic receptor alpha-1 (Rattus norvegicus) (UniProt P15823+P23944+P43140)
- method notes: Percent inhibition against rat cortical alpha-1 adrenergic receptor labeled with [3H]prazosin radioligand was determined
- Format: protein assay
- setup conditions: concentration not given here
Label rule, in plain words: inhibition of 90% and up is MET, under 90% is NOT MET.

> print(dat)
                              line.notation  class.name
1        COc1ccccc1OCCNCCCCc1c[nH]c2ccccc12         MET
2      COc1ccccc1OCCNCCCc1c[nH]c2ccc(F)cc12         MET
3   Fc1ccc2[nH]cc(CCCNCCOc3cccc4c3OCC4)c2c1     NOT MET
4  Fc1cc2c(c(OCCNCCCc3c[nH]c4ccc(F)cc34)c1)OCCC2     NOT MET
5  Fc1cc2c(c(OCCNCCc3c[nH]c4ccc(F)cc34)c1)OCC2     NOT MET
6  Fc1ccc2[nH]cc(CCCNCCOc3cccc4[nH]cnc34)c2c1         MET
7   Fc1ccc2[nH]cc(CCNCCOc3cccc4c3OCCO4)c2c1     NOT MET

* * *

In what follows, each item is paired with its Ki for Sodium-dependent serotonin transporter (Rattus norvegicus).
reported metric: Ki (nM)

> print(dat)
                              line.notation  observed.measurement
1    COc1ccc(F)cc1OCCNCCc1c[nH]c2ccc(F)cc12                  23.5
2       COc1ccc(F)cc1OCCNCCc1c[nH]c2ccccc12                    43
3  Fc1ccc2[nH]cc(CCCNCCOc3cccc4nccnc34)c2c1                   1.2

* * *

- tested on: Adrenergic receptor alpha-1 (Rattus norvegicus, UniProt P15823+P23944+P43140)
- Sequence (P15823 whole entry): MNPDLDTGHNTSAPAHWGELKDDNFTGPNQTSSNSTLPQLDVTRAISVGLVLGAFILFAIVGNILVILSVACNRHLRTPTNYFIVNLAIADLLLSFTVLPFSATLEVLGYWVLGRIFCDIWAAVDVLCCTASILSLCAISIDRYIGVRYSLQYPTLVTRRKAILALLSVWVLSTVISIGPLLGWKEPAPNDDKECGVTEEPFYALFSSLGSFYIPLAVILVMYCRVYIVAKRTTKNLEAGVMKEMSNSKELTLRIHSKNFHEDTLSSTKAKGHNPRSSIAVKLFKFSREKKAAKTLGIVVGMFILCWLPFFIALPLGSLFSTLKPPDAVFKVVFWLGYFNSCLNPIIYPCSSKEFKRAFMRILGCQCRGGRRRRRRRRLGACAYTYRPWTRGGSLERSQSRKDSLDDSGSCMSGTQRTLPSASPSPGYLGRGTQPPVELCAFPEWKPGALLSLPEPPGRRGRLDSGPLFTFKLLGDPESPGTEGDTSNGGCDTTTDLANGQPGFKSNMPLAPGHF
- Sequence (P23944 whole entry): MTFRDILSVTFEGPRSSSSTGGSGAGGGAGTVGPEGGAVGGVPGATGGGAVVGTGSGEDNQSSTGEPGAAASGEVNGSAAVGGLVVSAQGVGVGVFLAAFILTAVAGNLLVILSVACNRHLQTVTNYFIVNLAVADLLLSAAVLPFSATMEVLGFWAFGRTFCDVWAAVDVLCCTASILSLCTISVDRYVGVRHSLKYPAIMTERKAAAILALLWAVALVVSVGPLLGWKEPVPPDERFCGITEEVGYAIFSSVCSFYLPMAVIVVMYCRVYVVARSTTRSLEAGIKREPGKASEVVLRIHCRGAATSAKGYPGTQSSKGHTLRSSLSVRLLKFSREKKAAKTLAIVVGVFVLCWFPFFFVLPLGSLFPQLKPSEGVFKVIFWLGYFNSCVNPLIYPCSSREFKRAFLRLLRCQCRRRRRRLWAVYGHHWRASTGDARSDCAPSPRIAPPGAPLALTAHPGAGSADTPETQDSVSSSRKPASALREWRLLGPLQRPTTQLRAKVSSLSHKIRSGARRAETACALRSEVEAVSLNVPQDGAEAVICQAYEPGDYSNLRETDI
- Sequence (P43140 whole entry): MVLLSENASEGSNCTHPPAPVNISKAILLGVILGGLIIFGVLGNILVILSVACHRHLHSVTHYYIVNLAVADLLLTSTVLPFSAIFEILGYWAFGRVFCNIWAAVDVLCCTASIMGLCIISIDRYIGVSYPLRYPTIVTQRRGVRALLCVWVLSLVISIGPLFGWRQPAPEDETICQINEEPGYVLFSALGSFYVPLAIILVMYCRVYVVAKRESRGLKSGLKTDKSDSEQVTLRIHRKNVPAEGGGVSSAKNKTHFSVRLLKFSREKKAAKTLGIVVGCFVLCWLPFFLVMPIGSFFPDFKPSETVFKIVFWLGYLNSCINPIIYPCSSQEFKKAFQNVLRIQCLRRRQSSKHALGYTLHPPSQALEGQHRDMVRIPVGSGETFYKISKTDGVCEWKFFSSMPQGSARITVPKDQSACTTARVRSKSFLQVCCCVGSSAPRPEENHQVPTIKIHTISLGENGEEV
Rule for this label: 1 means Ki is less than 50 nM; -1 means Ki is at least 50 nM.

> print(dat)
                              line.notation                                 tested.on  class.name
1  Fc1cc(OCCNCCCc2c[nH]c3ccc(F)cc23)c2occc2c1  Adrenergic receptor alpha-1 (Rattus norvegicus, UniProt P15823+P23944+P43140)           1
2  Fc1ccc2[nH]cc(CCCNCCOc3cccc4c3OCCO4)c2c1  Adrenergic receptor alpha-1 (Rattus norvegicus, UniProt P15823+P23944+P43140)           1
3   Fc1ccc2[nH]cc(CCCNCCOc3cccc4ccoc34)c2c1  Adrenergic receptor alpha-1 (Rattus norvegicus, UniProt P15823+P23944+P43140)           1
4   Fc1ccc2[nH]cc(CCCNCCOc3cccc4c3OCC4)c2c1  Adrenergic receptor alpha-1 (Rattus norvegicus, UniProt P15823+P23944+P43140)          -1
5   c1cnc2c(OCCNCCCc3c[nH]c4ccccc34)cccc2c1  Adrenergic receptor alpha-1 (Rattus norvegicus, UniProt P15823+P23944+P43140)           1
6  Fc1ccc2[nH]cc(CCCNCCOc3cccc4nccnc34)c2c1  Adrenergic receptor alpha-1 (Rattus norvegicus, UniProt P15823+P23944+P43140)          -1
